Target: Protein kinase C (PKC)
Experiment: Inhibition of PKC (unknown origin) by Z'-LYTETM kinase assay
Design: species or system Homo sapiens
Measured log10(IC50) values are reported for all entries that follow.
Values reflect log10 of reported IC50 (nM).

- O=c1[nH]c2sccc2c(NC2CCCNC2)c1-c1nc2ccccc2[nH]1 (centres undefined): 2.84

For reference, reported log10(IC50) for O=c1[nH]c2sc(Br)cc2c(NC2CCCNC2)c1-c1nc2ccccc2[nH]1 (centres undefined) stands at 2.59

Recorded log10(IC50) (molecule O=c1[nH]c2ccsc2c(NC2CCCNC2)c1-c1nc2ccccc2[nH]1 (centres undefined) ): 2.91

In plain terms, COc1ccc2[nH]c(-c3c(NC4CN5CCC4CC5)c4cc(Cl)sc4[nH]c3=O)nc2c1 (centres undefined) has a documented log10(IC50) of 3.91

Record summary for O=c1[nH]c2sc(Cl)cc2c(NC2CN3CCC2CC3)c1-c1nc2ccccc2[nH]1 (centres undefined) : reported log10(IC50) = 3.31
